Cited source for all entries: patent US8415351B2

# subjectOfTest: HCV polymerase 1B (Δ21 NS5B, BK) (Hepatitis C virus genotype 1b, UniProt P26663)
# Construct: 20 to 50 nM Δ21 NS5B
# Sequence (P26663 2420-2989, stated change not applied): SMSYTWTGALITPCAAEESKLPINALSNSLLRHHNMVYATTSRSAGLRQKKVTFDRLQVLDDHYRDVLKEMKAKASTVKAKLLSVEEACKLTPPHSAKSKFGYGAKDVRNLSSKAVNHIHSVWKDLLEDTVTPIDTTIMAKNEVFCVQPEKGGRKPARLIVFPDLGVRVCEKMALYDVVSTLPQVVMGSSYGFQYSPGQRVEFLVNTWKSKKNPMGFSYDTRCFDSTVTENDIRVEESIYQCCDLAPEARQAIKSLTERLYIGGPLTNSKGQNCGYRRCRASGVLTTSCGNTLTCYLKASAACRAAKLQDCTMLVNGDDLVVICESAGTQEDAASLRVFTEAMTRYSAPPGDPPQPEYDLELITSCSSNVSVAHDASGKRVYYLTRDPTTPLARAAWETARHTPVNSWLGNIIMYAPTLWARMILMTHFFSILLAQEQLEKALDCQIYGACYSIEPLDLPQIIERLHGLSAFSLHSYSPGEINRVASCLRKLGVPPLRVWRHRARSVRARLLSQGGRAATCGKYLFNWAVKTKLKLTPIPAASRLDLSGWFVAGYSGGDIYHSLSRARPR
# assayExplanation: biochemical
IC50 values, listed per item

Some solved entries appear below for comparison.
compound	IC50
CN(Cc1cc(N2CCC(=O)NC2=O)cc(C(C)(C)C)c1O)C1CCCCC1 [IA-L9-1.2, 2,2,2-trifluoroacetate]	> 1000 nM
COc1c(C#Cc2ncc(NS(C)(=O)=O)cc2C)cc(N2CCC(=O)NC2=O)cc1C(C)(C)C	10 to 100 nM

Now for another entry.
*Q* Query (compound): `COc1c(C(=O)Nc2ccc(NS(C)(=O)=O)cc2)cc(-n2ccc(=O)[nH]c2=O)cc1C(C)(C)C` ; field requested: IC50
*A* 10 to 100 nM
